- tested.system: cytochrome P450 enzyme 1A2 (CYP1A2) (Homo sapiens, UniProt P05177)
- protocol.notes: enzyme inhibition assay, method reported earlier
- Assay type: biochemical
- condition.summary: read-out: EI
measurement.kind: pIC50
Scale: negative log10 of molar concentration, which is what pIC50 denotes.

# input compound: C#CCOCc1ccc(-c2ccccc2)cc1 ; wanted: its pIC50
5.74

###

- tested.system: UniProt P05177
- Sequence (P05177 2-516): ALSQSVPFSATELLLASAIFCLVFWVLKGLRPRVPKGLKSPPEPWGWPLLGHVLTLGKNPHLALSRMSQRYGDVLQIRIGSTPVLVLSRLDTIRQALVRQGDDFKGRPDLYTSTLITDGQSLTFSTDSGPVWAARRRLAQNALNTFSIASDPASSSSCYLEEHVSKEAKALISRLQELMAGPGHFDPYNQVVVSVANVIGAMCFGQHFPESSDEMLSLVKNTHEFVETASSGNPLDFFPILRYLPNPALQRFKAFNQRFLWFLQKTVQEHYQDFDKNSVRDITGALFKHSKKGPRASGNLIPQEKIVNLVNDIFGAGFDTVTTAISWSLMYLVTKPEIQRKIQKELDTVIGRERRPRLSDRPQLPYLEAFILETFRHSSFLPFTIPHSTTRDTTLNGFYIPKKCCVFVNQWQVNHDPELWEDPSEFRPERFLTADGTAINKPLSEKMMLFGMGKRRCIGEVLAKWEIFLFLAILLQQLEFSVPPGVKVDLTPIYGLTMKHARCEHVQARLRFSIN
- protocol.notes: enzyme inhibition assay, method reported earlier
- Assay type: biochemical
IC50 class ranges: low bin = under 400 nM, mid bin = from 400 nM up to 1000 nM, high bin = 1000 nM and over

# example entries with known answers
| compound | tested.system | group.label |
| --- | --- | --- |
| C#CCOc1ccc(-c2cc(=O)c3ccc4ccccc4c3o2)cc1 [4′αNFPE, α-naphthoflavone-4′-propargyl ether] | UniProt P05177 | low bin |
| C#CCOc1ccc(-c2cc(=O)c3ccccc3o2)cc1 [4′FPE, 4′-flavonepropargyl ether] | UniProt P05177 | high bin |
| CCC#Cc1ccc2ccc3cccc4ccc1c2c34 [1EEP, 1-butynylpyrene] | UniProt P05177 | mid bin |
| C#CCOc1ccc2c(C)cc(=O)oc2c1 [4M7CPE, 4-methyl-7-coumarinpropargyl ether] | UniProt P05177 | high bin |
| C#CCOc1ccc2c(C(F)(F)F)cc(=O)oc2c1 [4TFM7CPE] | UniProt P05177 | mid bin |
| C#CCOc1ccc2oc(-c3ccccc3)cc(=O)c2c1 [6FPE, 6-flavonepropargyl ether] | UniProt P05177 | mid bin |
| CC#Cc1ccc2c(ccc3ccccc32)c1 [2MEPHEN, 2-(1-propynyl)phenanthrene] | UniProt P05177 | mid bin |
| C#CCOc1cccc2oc(-c3ccccc3)cc(=O)c12 [5FPE, 5-flavonepropargyl ether] | UniProt P05177 | low bin |

Lab note: next compound to report on.
Category lookup for the compound C#CCOc1ccc(-c2ccccc2)cc1 [4BIPHPE, 4-biphenylpropargyl ether]
high bin
